Provenance of the data: the Human Domainome abundance scans (Beltran et al. 2025)

B1: Double-stranded RNA-binding protein Staufen homolog 1, residues 183 to 249; numbered along this chain, O95793 (parent)
chain: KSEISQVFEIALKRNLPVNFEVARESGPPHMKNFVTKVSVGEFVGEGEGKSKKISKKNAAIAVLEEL

Variants of: B1
Assay: abundance fitness (aPCA) (normalised: wild type 0, dead -1); higher = more abundant; growth selection in yeast, the domain comes from the species named
Details: Homo sapiens
measured property: abundance fitness
Reply briefly: the number, and no unit.

Query: Input KSEISQVFEIALKRNLPVNFEDARESGPPHMKNFVTKVSVGEFVGEGEGKSKKISKKNAAIAVLEEL [V22D] , output reported abundance fitness.
Response: -0.102

Query: Input KSEISQVFEIALKRNLPVNFEVARESGPPHMKNFVTKVSVGEFVGEGEGKSKKISNKNAAIAVLEEL [K56N] , output reported abundance fitness.
Response: -0.405

Query: Input KSEISQVFEIALKRNLPVNFEVARESGPPHVKNFVTKVSVGEFVGEGEGKSKKISKKNAAIAVLEEL [M31V] , output reported abundance fitness.
Response: -0.099

Query: Input KSEISQVFEIALKRNLPVNFEVARESGPPHMKNFVTKVSVGEFVQEGEGKSKKISKKNAAIAVLEEL [G45Q] , output reported abundance fitness.
Response: -0.395
